B1: VH:VL chains; a variant is named by its letters at X, in order (parent)
chain 1: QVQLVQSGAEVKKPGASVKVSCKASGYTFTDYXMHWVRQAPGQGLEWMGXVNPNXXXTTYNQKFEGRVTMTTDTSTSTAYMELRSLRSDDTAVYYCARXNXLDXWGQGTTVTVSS
chain 2: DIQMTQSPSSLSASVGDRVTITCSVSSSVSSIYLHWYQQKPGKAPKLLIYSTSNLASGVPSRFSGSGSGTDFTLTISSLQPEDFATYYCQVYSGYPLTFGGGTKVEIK

variants of: B1; assay: yeast display scFab, FACS + sequencing
observedProperty: non-specific binding call

# mutant, non-specific binding call
data = [
    ("AARADSLS", "no binding"),
    ("DEETNSGA", "binds"),
    ("YEGTGSGD", "no binding"),
    ("YRKGGAGS", "binds"),
    ("YAGRGDVY", "no binding"),
]

Please report the measured non-specific binding call for SEEGTDWD
no binding

In one line, give reported non-specific binding call of the entry VRGGGDWV .
no binding

Read the entry YTERGDVY and write its reported non-specific binding call.
no binding

Give non-specific binding call for YTGGDDGF
no binding

meta.source: the emibetuzumab library of Makowski et al. (2022)
